Origin of values: ChEMBL document CHEMBL5512600

Molecular target: Melatonin receptor type 1A (Homo sapiens)
Sequence (P48039 whole entry): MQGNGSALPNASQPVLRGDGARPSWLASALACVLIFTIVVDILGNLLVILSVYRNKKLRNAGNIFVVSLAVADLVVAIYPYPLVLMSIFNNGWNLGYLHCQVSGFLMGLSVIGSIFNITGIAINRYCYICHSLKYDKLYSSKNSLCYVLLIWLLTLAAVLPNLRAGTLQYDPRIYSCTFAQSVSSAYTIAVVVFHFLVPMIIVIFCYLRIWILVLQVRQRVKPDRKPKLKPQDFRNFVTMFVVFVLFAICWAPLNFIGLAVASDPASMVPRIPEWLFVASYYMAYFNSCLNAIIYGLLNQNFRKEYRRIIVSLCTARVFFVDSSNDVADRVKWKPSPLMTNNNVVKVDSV
Test: Binding affinity to human MT1 receptor assessed as inhibition constant
The reader will find reported pKi values listed item by item below.
The quantity pKi is defined as the negative base-10 logarithm of the molar concentration.

// worked examples, pKi included
molecule=COc1ccc2c(c1)c(C(C)(C)CNC(C)=O)c1n2CCc2ccccc2-1 endpoint_value=7.26
molecule="CNC(=O)NCC(C)c1c2n(c3ccc(OC)cc13)CCc1ccccc1-2 (stereo unspecified)" endpoint_value=7.72

Now examine the next entry.
Prompt: Look up pKi for this molecule: O=C(NCC1CCc2ccccc2N1Cc1ccccc1)C1CC1 (stereo unspecified)
Completion: 7.54

* * *

Target: Melatonin receptor type 1B (Homo sapiens)
Assay: Binding affinity to human MT2 receptor assessed as inhibition constant
Attribute measured: pKi
The quantity pKi is defined as the negative base-10 logarithm of the molar concentration.

molecule="COc1ccc2c(c1)c(C(C)CNC(C)=O)c1n2CCc2ccccc2-1 (configuration not stated)" target_under_test="Melatonin receptor type 1B (Homo sapiens)" endpoint_value=9.30

Prompt: Look up pKi for this molecule: CC(=O)NCCC1=C(c2cccc(C(C)C)c2)Cc2ccc3c(c21)CCO3
Completion: 7.89

* * *

Target: Melatonin receptor type 1B (Homo sapiens, UniProt P49286)
Sequence (P49286 whole entry): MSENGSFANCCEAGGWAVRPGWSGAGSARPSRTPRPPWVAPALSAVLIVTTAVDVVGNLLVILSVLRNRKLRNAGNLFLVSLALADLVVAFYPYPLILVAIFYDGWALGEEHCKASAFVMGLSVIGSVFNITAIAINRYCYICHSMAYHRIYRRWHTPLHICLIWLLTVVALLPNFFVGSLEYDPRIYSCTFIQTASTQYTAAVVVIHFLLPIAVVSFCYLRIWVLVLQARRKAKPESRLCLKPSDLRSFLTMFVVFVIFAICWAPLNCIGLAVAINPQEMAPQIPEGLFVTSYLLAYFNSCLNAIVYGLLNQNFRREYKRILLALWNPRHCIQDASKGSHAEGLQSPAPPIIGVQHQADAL
Experiment: Binding affinity to MT2 receptor (unknown origin) expressed in HEK293 cells assessed as inhibition constant
Assay type: cell-based
The reader will find reported pKi values listed item by item below.
The quantity pKi is defined as the negative base-10 logarithm of the molar concentration.

compound=COc1cccc(N(CCNC(C)=O)c2cccc(OC)c2)c1 endpoint_value=10.44

Now examine the next entry.
Prompt: Look up pKi for this compound: COc1cccc(C(CCNC(C)=O)c2ccccc2)c1 (configuration not stated)
Completion: 10.18

* * *

Target: Melatonin receptor type 1B (Homo sapiens)
Assay: Binding affinity to MT2 receptor (unknown origin) assessed as inhibition constant
Format: cell-based, NIH3T3
Attribute measured: Ki (nM)
Express your answer in nM, writing the number without its unit.

Prompt: Look up Ki for this molecule: CC(=O)NCCc1c(Cc2ccccc2)[nH]c2ccccc12
Completion: 158

* * *

Target: Melatonin receptor type 1B (Homo sapiens)
Assay: Antagonist activity at human MT2 receptor by BRET assay
Format: functional
Attribute measured: EC50
The reply must contain the numeric value and, after it, the unit.

structure_as_smiles=NC(=O)c1cc(C(=O)c2ccccc2Cl)c[nH]1 attribute_measured=EC50 endpoint_value="10.2 nM"
structure_as_smiles=COc1cccc(CNc2nc(C3CC3)no2)c1 attribute_measured=EC50 endpoint_value="141 nM"

Now examine the next entry.
Prompt: Look up EC50 for this molecule: Nc1cc(=O)[nH]c(=S)n1CCc1ccccc1
Completion: 52.5 nM

* * *

Species on record: Homo sapiens
Test: Selectivity ratio of Ki for human MT1 receptor to Ki for human MT2
Attribute measured: Ratio Ki
Number only, please.

// worked examples, Ratio Ki included
structure_as_smiles=CCC(=O)NCCCc1cc(OC)ccc1CCc1cccc(OC)c1 endpoint_value=40
structure_as_smiles=CCCC(=O)NCCc1c2n(c3ccc(OC)cc13)CCc1ccccc1-2 endpoint_value=89
structure_as_smiles=COc1ccc2c(c1)c(CCNC(C)=O)c1n2CCc2ccccc2-1 endpoint_value=30
structure_as_smiles=CCC(=O)NCCCc1cc(OC)ccc1C#Cc1cccc(OC)c1 endpoint_value=523
structure_as_smiles=CCC(=O)NCCCc1cc(OC)ccc1OCc1cccc(OC)c1 endpoint_value=416
structure_as_smiles=CCC(=O)NCCc1c2n(c3ccc(OC)cc13)CCc1ccccc1-2 endpoint_value=26

Now examine the next entry.
Prompt: Look up Ratio Ki for this compound: COc1cc2[nH]cc(CCNC(C)=O)c2cc1OC
Completion: 59
